# Test system: RAW 264.7 cells
# TEST SUMMARY: Quantitative cell-permeability of FITC-labeled aMTD- or rPeptide-fused CRA recombinant proteins (flow cytometry)
# Format: cell-based
# EXPERIMENTAL SETUP: cell-permeability of aMTD-fused CRA recombinant protein relative to reference CPP (C: MTD85)
ATTRIBUTE MEASURED: Relative Ratio (Fold) C
Please answer in the form of a number followed by its unit of measurement.

Please list Relative Ratio (Fold) C recorded for the substance 825 (IVAVIVAPAVAP; Amino acid Sequence of aMTD825) [compound 825]
23.5 Fold

Entry 341 (IVAVALPAVLAP; Amino acid Sequence of aMTD341) [compound 341] needs its Relative Ratio (Fold) C filled in; supply it.
5.5 Fold

Give Relative Ratio (Fold) C for 826 (LVALAAPIIAVP; Amino acid Sequence of aMTD826) [compound 826]
18.6 Fold

For 281 (ALIVLPAAVAVP; Amino acid Sequence of aMTD281) [compound 281] , write its Relative Ratio (Fold) C.
4.5 Fold

Quick one: give measured Relative Ratio (Fold) C for 803 (AIALAVPVLALP; Amino acid Sequence of aMTD803) [compound 803]
25.3 Fold

Annotate the substance 746 (VAIIVVAPALAP; Amino acid Sequence of aMTD746) [compound 746] with its measured Relative Ratio (Fold) C.
2.6 Fold

Look up and state reported Relative Ratio (Fold) C for 403 (AAALVIPAAILP; Amino acid Sequence of aMTD403) [compound 403]
8.5 Fold

Give a short answer stating reported Relative Ratio (Fold) C for 501 (VIVALAVPALAP; Amino acid Sequence of aMTD501) [compound 501] .
7.2 Fold
